Tested on: TK-10
protocol details: Anticancer activity against human TK10 cells after 48 hrs by sulforhodamine B assay
Assay type: functional
recorded conditions: Homo sapiens, TK-10, 48 h
measured property: GI50 (nM)
Quick reminder: number only, in nM, skip the unit.

Read the entry CCCCCCCCCCCCCCCCCC[n+]1ccn(C)c1.FC(F)(F)C(F)(F)[P-](F)(F)(F)(C(F)(F)C(F)(F)F)C(F)(F)C(F)(F)F and write its reported GI50.
310

Read the entry CCCCCCCCCCCCCCCC[n+]1ccn(C)c1.[Cl-] and write its reported GI50.
295

Read the entry CCCCCCCCCCCCCCCCCC[n+]1ccn(C)c1.[Cl-] and write its reported GI50.
244

Read the entry CCCCCCCCCCCCCCCCCC[n+]1ccn(C)c1.O=S(=O)([N-]S(=O)(=O)C(F)(F)F)C(F)(F)F and write its reported GI50.
407

Read the entry CCCCCCCCCCCC[n+]1ccn(C)c1.[Cl-] and write its reported GI50.
1920

###

Test system: UACC-257
protocol details: Anticancer activity against human UACC257 cells assessed cell growth at 10 uM after 48 hrs by sulforhodamine B assay relative to control
Type: functional
measured property: Activity (%)
Quick reminder: number only, in %, skip the unit.

Please tell me the measured Activity for CCCCCCCCOS(=O)(=O)[O-].CCCCCCCC[n+]1ccn(C)c1 ; system: UACC-257.
78.7

Please tell me the measured Activity for CCCCCC[n+]1ccn(C)c1.FC(F)(F)C(F)(F)[P-](F)(F)(F)(C(F)(F)C(F)(F)F)C(F)(F)C(F)(F)F ; system: UACC-257.
34.16

Please tell me the measured Activity for CCCCCCCCCCCC[n+]1ccn(C)c1.F[B-](F)(F)F ; system: UACC-257.
-7.74

Please tell me the measured Activity for CCCCCCCC[n+]1ccn(C)c1.F[B-](F)(F)F ; system: UACC-257.
87.94

Please tell me the measured Activity for Cn1cc[n+](CCO)c1.O=S(=O)([N-]S(=O)(=O)C(F)(F)F)C(F)(F)F ; system: UACC-257.
93.35

Please tell me the measured Activity for CCCCCCCCCCCCCCCCCC[n+]1ccn(C)c1.O=S(=O)([N-]S(=O)(=O)C(F)(F)F)C(F)(F)F ; system: UACC-257.
-47.9

Please tell me the measured Activity for CCCCCCCCCCCCCCCCCC[n+]1ccn(C)c1.FC(F)(F)C(F)(F)[P-](F)(F)(F)(C(F)(F)C(F)(F)F)C(F)(F)C(F)(F)F ; system: UACC-257.
-53.5

Please tell me the measured Activity for Cn1cc[n+](Cc2ccccc2)c1.F[P-](F)(F)(F)(F)F ; system: UACC-257.
106.42

Please tell me the measured Activity for CCCCCCCCCCCCCCCCCC[n+]1ccn(C)c1.[Cl-] ; system: UACC-257.
-38

###

Test system: BT-549
protocol details: Anticancer activity against human BT549 cells after 48 hrs by sulforhodamine B assay
Type: functional
recorded conditions: Homo sapiens, BT-549, 48 h; read-out: LC50 (the source's name)
Quick rule for you: CC50 under 5 µM gets Met, anything else gets Not met.

Consider the molecule CCCCCCCCCCCCCCCCCC[n+]1ccn(C)c1.[Cl-] . Is its CC50 strictly less than 5 µM?
Not met

Consider the molecule CCCCCCCCCCCCCCCC[n+]1ccn(C)c1.[Cl-] . Is its CC50 strictly less than 5 µM?
Not met

Consider the molecule CCCCCCCCCCCCCCCCCC[n+]1ccn(C)c1.FC(F)(F)C(F)(F)[P-](F)(F)(F)(C(F)(F)C(F)(F)F)C(F)(F)C(F)(F)F . Is its CC50 strictly less than 5 µM?
Met

Consider the molecule CCCCCCCCCCCC[n+]1ccn(C)c1.[Cl-] . Is its CC50 strictly less than 5 µM?
Not met

Consider the molecule CCCCCCCCCCCCCCCCCC[n+]1ccn(C)c1.O=S(=O)([N-]S(=O)(=O)C(F)(F)F)C(F)(F)F . Is its CC50 strictly less than 5 µM?
Not met
